Source of measurements: PubChem BioAssay (EPA / NIEHS)

# Read-out: ATP-citrate lyase (ACLY), ACLY (gene 47)
# procedure.summary: LTEA_HepaRG_ACLY: Life Technologies and Expression Analysis (LTEA) Assay for ATP-citrate lyase (ACLY) using HepaRG (AID 2283466)
# particulars: mRNA level, 48 h; actives raise or lower the signal
Activity calls are given as the source filed them. The calls were made as follows: active = hit-call score of the fitted dose curve at least 0.9, where 1 is the maximum; inactive = score below 0.9.
Hello, when you answer, please use one of the following outcomes: yes (active), no (inactive)

Here's what some known entries look like.
**Q:** So what was the verdict on Cc1ccc(N(C)C)cc1 in this test?
**A:** no

**Q:** Would you mind telling me which call this test gave Cc1cccc(Nc2cc(Cl)nc(SCC(=O)O)n2)c1C ?
**A:** no

**Q:** Per the assay record, what outcome was assigned to CC(=O)Oc1ccccc1C(=O)O ?
**A:** no

**Q:** Test call for this molecule, please: c1cc(-c2ccncc2)ccn1
**A:** no

**Q:** // param item: COc1ccc(C)cc1N ; yields the recorded call
**A:** no

**Q:** Tell me the recorded outcome of this test for Cc1ccccc1Cl .
**A:** no

**Q:** What did the test return for CCCCCCOCCO ?
**A:** no

**Q:** Would you mind telling me which call this test gave NC(=O)Cn1c(=O)cc(CCN2CCN(c3nccc4sccc34)CC2)c2ccc(F)cc21 ?
**A:** no

**Q:** Hey, what did the test say about CCCCc1ccc2c(n1)[C@@H](c1ccc(OC)cc1C[C@H](C)C(=O)O)[C@H](C(=O)O)[C@H]2c1ccc2c(c1)OCO2 ?
**A:** no

**Q:** What classification did C1CCC(SSC2CCCCC2)CC1 end up with in this test?
**A:** no

Further cases:
**Q:** How did this test come out for O=C(OCCCCCOC(=O)c1ccccc1)c1ccccc1 ?
**A:** yes

* * *

# Read-out: TIMP metallopeptidase inhibitor 1 (TIMP1), TIMP1 (gene 7076)
# procedure.summary: BSK_hDFCGF_TIMP1: BioMAP Diversity Plus: hDFCGF Assay for TIMP metallopeptidase inhibitor 1 (TIMP1) Biomarker Activity (AID 2283062)
# particulars: primary human foreskin fibroblasts; actives raise or lower the signal
Activity calls are given as the source filed them. How the source made its calls: active means hit-call score of the fitted dose curve at least 0.9, where 1 is the maximum; inactive means score below 0.9.
I would appreciate it if you answered using one of these outcomes: Y (active), N (inactive)

**Q:** I'd appreciate the recorded outcome for CCCCN(CCCC)CCCC from this test.
**A:** N

**Q:** Give the logged outcome of this assay for the following compound: CC(C)c1ccc(C(=O)N=C(N)N)cc1S(C)(=O)=O
**A:** N

**Q:** Please state the recorded outcome for this compound: O=C(N[C@@H](Cc1ccccc1)[C@@H](O)C(=O)N1C[C@@H](O)[C@@H](O)C1)c1cc2cc(Cl)ccc2[nH]1
**A:** N

* * *

# procedure.summary: ATG_GLI_CIS: Attagene CIS-FACTORIAL HepG2 Assay for human Zinc Finger Protein GLI1 (AID 2282945)
# particulars: HepG2, Attagene cis-factorial reporter mRNA, GLI element; actives raise or lower the signal
Calls of active or inactive are those of the source. How the source made its calls: active means hit-call score of the fitted dose curve at least 0.9, where 1 is the maximum; inactive means score below 0.9.
Hi there, use one of these labels in your reply, thanks! class 1 (active), class 0 (inactive)

**Q:** # lookup: test call for Cc1cccc([N+](=O)[O-])c1C
**A:** class 0

**Q:** # fetch the recorded call for NC(=O)Cn1c(=O)cc(CCN2CCN(c3nccc4sccc34)CC2)c2ccc(F)cc21 here
**A:** class 0

**Q:** Can you look up the reported call for NCC1(Cc2noc(=O)[nH]2)CCCCC1 for me?
**A:** class 0

**Q:** // param item: CN[C@H]1CC[C@@H](c2ccc(Cl)c(Cl)c2)c2ccc(S(N)(=O)=O)cc21 ; yields the recorded call
**A:** class 0

**Q:** Hello, I am checking results. What call was entered for O=c1[nH]cc(F)c(=O)[nH]1 ?
**A:** class 0

Further cases:
**Q:** Fill in: this test's call for Cc1ccc(C)c(O)c1C is ___
**A:** class 0

**Q:** What classification did CCCCN(CCCC)CCCC end up with in this test?
**A:** class 0

* * *

# Read-out: Interleukin-6 (IL6), IL6 (gene 3569)
# procedure.summary: BSK_CASM3C_IL6: BioMAP Diversity Plus: CASM3C Assay for Interleukin-6 (IL6) Biomarker Activity for (AID 2283040)
# particulars: primary human coronary artery smooth muscle cells; actives raise or lower the signal
The source made the active and inactive calls. The calls were made as follows: active = hit-call score of the fitted dose curve at least 0.9, where 1 is the maximum; inactive = score below 0.9.
Assign a class; possible classes are active, inactive

Below are worked cases with known answers.
**Q:** Could you kindly confirm the outcome this assay logged for COc1cc(-c2nc(NC(=O)c3cc4cc(C)cc(C)c4n3CC(=O)O)sc2CCC2CCCCC2)c(OC)cc1Cl ?
**A:** active

**Q:** Outcome logged for Cc1oc(-c2ccccc2)nc1CCOc1cccc2c1ccn2CCC(=O)O in this assay:
**A:** inactive

**Q:** Called result for CC(=O)Oc1ccccc1C(=O)O
**A:** inactive

**Q:** What classification did CCCCOC(=O)CCCCCCCCC(=O)OCCCC end up with in this test?
**A:** inactive

**Q:** Recorded call for CN1CCCC1=O ?
**A:** inactive

**Q:** Recorded call for CCCCCCOCCO ?
**A:** inactive

**Q:** Returns: the outcome recorded for NCCO in this assay.
**A:** inactive

**Q:** Each molecule tested received a call. Report the one for CCCCCCCC=O .
**A:** inactive

**Q:** Per the assay record, what outcome was assigned to O=c1c(O)c(-c2ccc(O)c(O)c2)oc2cc(O)cc(O)c12 ?
**A:** active

**Q:** Hi, sorry to bother you, what did the test record for c1cc(-c2ccncc2)ccn1 ?
**A:** inactive

Next:
**Q:** Recorded test outcome, item Cc1ccc(Cl)cc1
**A:** inactive

**Q:** Hi, sorry to bother you, what did the test record for C[Si]1(C)O[Si](C)(C)O[Si](C)(C)O[Si](C)(C)O1 ?
**A:** inactive

**Q:** # lookup: test call for CN[C@H]1CC[C@@H](c2ccc(Cl)c(Cl)c2)c2ccc(S(N)(=O)=O)cc21
**A:** active

* * *

# Read-out: Lipase C (LIPC), LIPC (gene 3990)
# procedure.summary: LTEA_HepaRG_LIPC: Life Technologies and Expression Analysis (LTEA) Assay for Lipase C (LIPC) using HepaRG (AID 2283514)
# particulars: mRNA level, 48 h; actives raise or lower the signal
Active and inactive are the calls of the source. Rule for the calls: active = hit-call score of the fitted dose curve at least 0.9, where 1 is the maximum; inactive = score below 0.9.
Respond using exactly one of the listed classes: active, inactive

Known results for compounds:
**Q:** Called result for C[C@]12C=CC(=O)C=C1CC[C@@H]1[C@@H]2C(=O)C[C@@]2(C)[C@H]1CC[C@]2(O)C(=O)CO
**A:** inactive

**Q:** Would you mind telling me which call this test gave COCCOC[C@H](CC1(C(=O)NC2CCC(C(=O)O)CC2)CCCC1)C(=O)Oc1ccc2c(c1)CCC2 (stereo partly specified) ?
**A:** inactive

New cases:
**Q:** Would you mind telling me which call this test gave COc1ccc(S(=O)(=O)N2C(=O)[C@@](c3ccccc3OC)(N3C[C@H](O)C[C@H]3C(=O)N(C)C)c3cc(Cl)ccc32)c(OC)c1 ?
**A:** active

**Q:** Please let me know the test result on file for Clc1cc(Cl)c(Cl)cc1Cl .
**A:** inactive

**Q:** // return assay outcome for CC(CO)OC(C)CO (stereo unspecified) (tested in a mixture with another compound)
**A:** inactive

**Q:** Hi team, can someone confirm the assay call for CCCCCCCCCCO ?
**A:** inactive

* * *

# Read-out: Interleukin-8 (IL8), CXCL8 (gene 3576)
# procedure.summary: BSK_3C_IL8: BioMAP Diversity Plus: 3C Assay for Interleukin-8 (IL8) Biomarker Activity (AID 2283020)
# particulars: primary human endothelial cells (HUVEC); actives raise or lower the signal
The source made the active and inactive calls. Rule for the calls: active = hit-call score of the fitted dose curve at least 0.9, where 1 is the maximum; inactive = score below 0.9.
Hi! Could you answer with just one of these? active, inactive

Previously resolved entries follow.
**Q:** I'd appreciate the recorded outcome for NS(=O)(=O)c1cc2c(cc1Cl)NCNS2(=O)=O from this test.
**A:** inactive

**Q:** Assay result, entry CCOC(=O)C(C)(C)Oc1ccc(Cl)cc1 — outcome?
**A:** inactive

**Q:** What outcome does the record of this test show for Cc1cccc(C)c1O ?
**A:** inactive

**Q:** Fill in: this test's call for CNCc1cc(F)ccc1Oc1ccc(Cl)c(Cl)c1 is ___
**A:** active

**Q:** Given O=C(OCCCCCOC(=O)c1ccccc1)c1ccccc1 , state the outcome it received in this test.
**A:** inactive

**Q:** What was the test verdict on CCCCCCCCCCCCCO ?
**A:** active

Further cases:
**Q:** Hello, I am checking results. What call was entered for CC1(C)NC(=O)NC1=O ?
**A:** inactive

**Q:** I would be grateful if you could indicate the recorded call for CC(=O)C(C)=CC1C(C)=CCCC1(C)C (stereo not drawn) .
**A:** inactive

**Q:** What classification did COc1ccc(S(=O)(=O)N2C(=O)[C@@](c3ccccc3OC)(N3C[C@H](O)C[C@H]3C(=O)N(C)C)c3cc(Cl)ccc32)c(OC)c1 end up with in this test?
**A:** active

**Q:** Per the records of this test, what outcome belongs to COc1cc(C=O)ccc1O ?
**A:** inactive

**Q:** # fetch the recorded call for Cc1ccc(N(C)C)cc1 here
**A:** inactive

**Q:** Fill in: this test's call for FC(F)(F)C(F)(F)C(F)(F)C(F)(F)C(F)(F)C(F)(F)CCI is ___
**A:** inactive
